// data source = patent US20260258115A1

Assign pKd to each entry below.
Biological target: RSV prefusion F (preF), DS-Cav1 (Respiratory Syncytial Virus)
Assay: BLI, IgG on anti-human IgG sensor, 100 nM antigen
As a rule, pKd stands for the negative log10 of the concentration, concentration in M.

Q: For the binder shown here, ADI-41157 (antibody, V domains shown) VH: EVQLVESGPGLVKPSETLSLTCTVSGGSISTYYWSWIRQPPGKGLEWIGYIYYTGSTNYNPSLKSRVTISLDTSKNQFSLKLSSVSAADTAFYYCARSPPVPGTRSWFDPWGQGTLVTVSS VL: SPGLTQPQSAFGTPGQRVTISCFGSSSNIGRNHIYWYQQVPGTAPKLLIYRNNQRPSGVPDRFFGSKFGTSASLAISGVRSEDEADYFCAAWDDSLSGPVFGGGTKLTVL , give the reported pKd.
Ans: 9.29

Q: Request the reported pKd associated with ADI-41230 (antibody, V domains shown) VH: QVQLVQSGAEVKKPGESLKISCKASGYSFTSHYWIGWVRQMPGKGLEWMGFIFPGDSDTRYSPSLQGQVTISADKSTNTAYLQWNSLKASDTAMYYCARLEYLVSGFEYWGQGTLVTVSS VL: QPGLTQPHSVSESPGKTVTISCTRSSGSIASNYVHWYQQRPGSFPTTVIYEDNQRPSGVPDRFSGSIDSSSNSASLTISGLRTEDEADYYCQSYDSSNPVVFGGGTKVTVL
Ans: 8.74

Q: Please report the recorded pKd for ADI-41149 (antibody, V domains shown) VH: QVQLVQSGGGVVQPGRSLRLSCAASGFTFSDYGMHWVRQAPGKGLEWVAVIWFDGSNKNYADSVKGRFTISRDNSMNTLYLQMNNLRAEDTAVYYCARAPYSFWSGYYLDYWGQGSLVTVSS VL: DIVMTQSPATLSVSPGERATLSCRASQSISSNLAWYQQKSGQAPRLLIYGASTRATGIPARFSGSGSGTEFTLTISSLQSEDFAVYSCQQYSKWPQTFGQGTKVEIK .
Ans: 8.36
